# system: T1, human CD28, full-length, expressed on transfected Expi293 cells (human, UniProt P10747 19-220)
# T1 construct: whole, on cells
# experimental.protocol: flow cytometry, 100 nM, Expi293 cells with human CD28
Hi there, I'd appreciate the recorded MFI for every entry that follows.
Write the number in MFI without appending the unit.

Need MFI, item variant ICOSL IgV-Fc fusion N52H/N57Y/Q100K (Fc fusion) DTQEKEVRAMVGSDVELSCACPEGSRFDLNDVYVYWQTSESKTVVTYHIPQHSSLEYVDSRYRNRALMSPAGMLRGDFSLRLFNVTPQDEQKFHCLVLSKSLGFQEVLSVEVTLHVAANFSVGSGGGGSEPKSSDKTHTCPPCPAPEAEGAPSVFLFPPKPKDTLMISRTPEVTCVVVDVSHEDPEVKFNWYVDGVEVHNAKTKPREEQYNSTYRVVSVLTVLHQDWLNGKEYKCKVSNKALPAPIEKTISKAKGQPREPQVYTLPPSREEMTKNQVSLTCLVKGFYPSDIAVEWESNGQPENNYKTTPPVLDSDGSFFLYSKLTVDKSRWQQGNVFSCSVMHEALHNHYTQKSLSLSPG
142000

Moving on to variant ICOSL IgV-Fc fusion N52R/N57F/Q100T (Fc fusion) DTQEKEVRAMVGSDVELSCACPEGSRFDLNDVYVYWQTSESKTVVTYHIPQRSSLEFVDSRYRNRALMSPAGMLRGDFSLRLFNVTPQDEQKFHCLVLSTSLGFQEVLSVEVTLHVAANFSVGSGGGGSEPKSSDKTHTCPPCPAPEAEGAPSVFLFPPKPKDTLMISRTPEVTCVVVDVSHEDPEVKFNWYVDGVEVHNAKTKPREEQYNSTYRVVSVLTVLHQDWLNGKEYKCKVSNKALPAPIEKTISKAKGQPREPQVYTLPPSREEMTKNQVSLTCLVKGFYPSDIAVEWESNGQPENNYKTTPPVLDSDGSFFLYSKLTVDKSRWQQGNVFSCSVMHEALHNHYTQKSLSLSPG
127000

Reference source for all entries: patent US20230235012A1
